MEASUREMENT PROTOCOL: in vivo
ASSAY CONTEXT: both, IL-13tg, mouse, lung (cryosections), oral, 250 mg/kg
ASSAY ENDPOINT: concentration at 8 h
Write the figure, then the unit, nothing else.

Req: For the compound shown here, C[C@H]1COC2(CCN(c3nc(=O)c4cc(C(F)(F)F)cc([N+](=O)[O-])c4s3)CC2)O1 , give the reported concentration at 8 h.
Resp: 270 ng/mL

---

MEASUREMENT PROTOCOL: LCM coupled LC-MS/MS of necrotic granulomas and non-necrotic regions
Type: in vivo, IL-13tg mice
ASSAY CONTEXT: IL-13tg, mouse, necrotic granulomas laser-dissected from lung cryosections, oral, 250 mg/kg/day, IL-13tg mouse, 250 mg/kg/day 10 days, 4 h after application; read-out: mean BTZ-043 concentration in necrotic granulomas
Method: Necrotic granulomas and non-necrotic regions were dissected from 2 to 3 γ−irradiated serial lung cryosections (thickness: 12 µm) using a PALM Microbeam (Zeiss, Oberkochen, Germany). Laser-dissected tissues were captured in an ascorbic acid solution (2.5 mg/mL) to prevent the degradation of BTZ-043 and stored at -80 °C. […] As internal standard d4-BTZ-043 was utilized, with the m/z-transitions 436.0 → 86.0 (cone voltage of 30 V, collision energy of 30 eV, dwell time of 0.2 s) as quantifier. […]
ASSAY ENDPOINT: concentration at 4 h (ng/g)
Lab book: enter the figure in ng/g, no units written.

Req: For the molecule shown here, C[C@H]1COC2(CCN(c3nc(=O)c4cc(C(F)(F)F)cc([N+](=O)[O-])c4s3)CC2)O1 , give the reported concentration at 4 h.
Resp: 570
